Source listed as patent US20100311729A1.

# MEASURED TARGET: PI3K alfa (Homo sapiens)
# Construct: for the p110-a subunit (with a deletion of the first 20 amino acids); His tag (C); made in house; host or cells: baculovirus; Tn5 (Trichoplusia ni) or TiniPro insect cells
# Sequence (P42336 with tags, fused parts or gaps limits assumed): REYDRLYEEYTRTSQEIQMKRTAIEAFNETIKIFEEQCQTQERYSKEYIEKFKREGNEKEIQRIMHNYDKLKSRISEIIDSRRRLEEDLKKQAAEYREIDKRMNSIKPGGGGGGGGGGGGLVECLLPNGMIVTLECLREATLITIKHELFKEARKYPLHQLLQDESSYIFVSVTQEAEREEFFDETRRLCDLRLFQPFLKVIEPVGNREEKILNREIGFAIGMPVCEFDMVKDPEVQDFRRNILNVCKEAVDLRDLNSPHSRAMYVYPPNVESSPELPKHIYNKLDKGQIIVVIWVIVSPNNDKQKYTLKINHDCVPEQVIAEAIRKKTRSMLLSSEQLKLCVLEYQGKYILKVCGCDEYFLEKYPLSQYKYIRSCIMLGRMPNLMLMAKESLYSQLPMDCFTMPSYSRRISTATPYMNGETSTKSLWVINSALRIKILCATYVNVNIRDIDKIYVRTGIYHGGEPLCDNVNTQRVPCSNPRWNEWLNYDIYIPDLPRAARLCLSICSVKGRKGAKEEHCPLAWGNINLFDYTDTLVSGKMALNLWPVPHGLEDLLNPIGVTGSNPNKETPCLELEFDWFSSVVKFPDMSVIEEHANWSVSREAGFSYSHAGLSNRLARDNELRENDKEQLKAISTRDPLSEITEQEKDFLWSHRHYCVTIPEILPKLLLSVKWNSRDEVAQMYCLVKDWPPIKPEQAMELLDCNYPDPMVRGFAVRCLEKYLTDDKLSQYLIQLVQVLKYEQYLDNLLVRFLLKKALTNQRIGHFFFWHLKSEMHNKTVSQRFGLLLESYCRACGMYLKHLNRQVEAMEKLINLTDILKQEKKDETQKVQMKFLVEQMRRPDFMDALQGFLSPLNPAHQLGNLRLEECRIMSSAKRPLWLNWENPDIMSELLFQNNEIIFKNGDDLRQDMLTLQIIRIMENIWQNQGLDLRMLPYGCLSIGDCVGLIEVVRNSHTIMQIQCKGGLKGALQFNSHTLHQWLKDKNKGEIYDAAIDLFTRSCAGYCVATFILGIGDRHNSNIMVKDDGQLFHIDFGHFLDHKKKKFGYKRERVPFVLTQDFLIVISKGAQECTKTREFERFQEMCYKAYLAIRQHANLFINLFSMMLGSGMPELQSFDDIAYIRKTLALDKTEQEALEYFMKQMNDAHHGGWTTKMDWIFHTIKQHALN
# EXPERIMENT SUMMARY: PI3 kinase assay (Kinase-Glo luminescence), PI3K alfa
# Format: biochemical
# CONDITION CONTEXT: Enzymatic Data; read-out: PI3K alfa IC50 [umol]
# Experimental: In a more preferred assay, the kinase reaction is performed in a final volume of 10 μL per well of a low volume non binding CORNING, 384 well black plate (Cat. No. #3676). The final concentrations of ATP and phosphatidyl inositol (PI) in the assay are 1 μM and 10 μg/mL respectively. […] […] is determined by a four parameter curve fitting routine that comes aloneg with “excel fit”. […] Alternatively, IC50 values are calculated using idbsXLfit model 204, which is a 4 parameter logistic model. […]
TEST READOUT: pIC50
The scale used: pIC50 is minus the common logarithm of the concentration in molar units.

# COMPOUND, pIC50
records = [
    ("Nc1ncc(-c2cnc3ccc(-c4ccc(C(=O)NCCN5CCOCC5)cc4)nn23)cc1C(F)(F)F [Example 122]", 7.37),
    ("Nc1ncc(-c2cnc3ccc(-c4ccc(OC5CCNCC5)cc4)nn23)cc1C(F)(F)F [Example 165]", 6.88),
    ("NCC1(COc2ccc(-c3ccc4ncc(-c5cnc(N)c(C(F)(F)F)c5)n4n3)cc2)COC1 [Example 169]", 7.35),
]

Let's switch to this compound now.
Provide the reported pIC50 (system: PI3K alfa (Homo sapiens)) for Nc1ncc(-c2cnc3ccc(-c4ccc(OCCN5CCCC5=O)c(F)c4)nn23)cc1C(F)(F)F [Example 94] 7.21

----------
# MEASURED TARGET: PI3K beta (Homo sapiens, UniProt P42338)
# Construct: for the full-length p110-b subunit are generated and fused by overlapping PCR; His tag (C); Tn5 (Trichoplusia ni) or TiniPro insect cells
# Sequence (P42338 with tags, fused parts or gaps limits assumed): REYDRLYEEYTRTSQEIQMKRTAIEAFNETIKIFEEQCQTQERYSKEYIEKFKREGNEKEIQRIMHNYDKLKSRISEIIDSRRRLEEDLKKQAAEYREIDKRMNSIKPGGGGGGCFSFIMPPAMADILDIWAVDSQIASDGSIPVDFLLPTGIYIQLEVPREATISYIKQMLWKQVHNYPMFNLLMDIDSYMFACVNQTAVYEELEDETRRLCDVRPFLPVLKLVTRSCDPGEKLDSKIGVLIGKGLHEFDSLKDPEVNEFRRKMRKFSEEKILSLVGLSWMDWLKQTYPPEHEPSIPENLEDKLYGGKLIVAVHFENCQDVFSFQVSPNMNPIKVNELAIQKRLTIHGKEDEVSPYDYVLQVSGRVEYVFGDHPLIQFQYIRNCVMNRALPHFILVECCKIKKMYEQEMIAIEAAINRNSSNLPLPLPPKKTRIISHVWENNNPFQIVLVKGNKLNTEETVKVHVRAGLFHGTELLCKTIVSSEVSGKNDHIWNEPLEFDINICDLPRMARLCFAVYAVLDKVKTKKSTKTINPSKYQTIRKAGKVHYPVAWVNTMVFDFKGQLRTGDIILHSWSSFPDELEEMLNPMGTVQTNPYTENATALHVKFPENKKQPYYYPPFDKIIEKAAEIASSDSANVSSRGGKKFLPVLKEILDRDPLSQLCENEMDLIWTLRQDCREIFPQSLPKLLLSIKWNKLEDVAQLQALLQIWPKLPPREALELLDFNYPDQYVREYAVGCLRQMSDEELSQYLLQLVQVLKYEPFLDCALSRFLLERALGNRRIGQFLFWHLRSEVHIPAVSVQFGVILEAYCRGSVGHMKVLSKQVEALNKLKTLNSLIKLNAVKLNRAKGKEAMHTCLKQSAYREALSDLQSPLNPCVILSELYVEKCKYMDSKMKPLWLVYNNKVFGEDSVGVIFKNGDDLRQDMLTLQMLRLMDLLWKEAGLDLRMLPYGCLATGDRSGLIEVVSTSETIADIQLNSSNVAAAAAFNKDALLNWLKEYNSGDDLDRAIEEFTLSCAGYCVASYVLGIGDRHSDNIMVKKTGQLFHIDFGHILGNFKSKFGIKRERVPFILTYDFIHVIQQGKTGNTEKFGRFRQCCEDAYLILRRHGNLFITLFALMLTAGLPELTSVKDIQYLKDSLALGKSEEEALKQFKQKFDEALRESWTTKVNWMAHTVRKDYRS
# EXPERIMENT SUMMARY: PI3 kinase assay (Kinase-Glo luminescence), PI3K beta
# CONDITION CONTEXT: Enzymatic Data; read-out: PI3K beta IC50 [umol]
TEST READOUT: pIC50
pIC50 field: float, defined as -log10 of concentration (mol/L).

Worked set:
# STRUCTURE SMILES, DATA VALUE
records = [
    ("Nc1ncc(-c2ccc3ncc(-c4ccc(CO)cc4)n3n2)cc1C(F)(F)F", 7.60),
    ("COc1cc(-c2cnc3ccc(-c4cnc(N)c(C(F)(F)F)c4)nn23)c(F)cc1C(=O)NCCn1ccnc1", 7.55),
    ("CC(C)C(=O)NCCCOc1ccc(-c2ccc3ncc(-c4cnc(N)c(C(F)(F)F)c4)n3n2)cc1", 5.47),
    ("COc1ccc(-c2ccc3ncc(-c4cnc(N)c(OC)n4)n3n2)cc1OC", 7.29),
    ("COc1cc(-c2cnc3ccc(-c4cnc(N)c(C(F)(F)F)c4)nn23)c(F)cc1C(=O)NCCN1CCOCC1", 6.41),
    ("Nc1ncc(-c2ccc3ncc(-c4ccc5c(cnn5CCCN5CCOCC5)c4)n3n2)cc1C(F)(F)F", 6.87),
]

Then this molecule:
Report pIC50 on PI3K beta (Homo sapiens, UniProt P42338) for this entry: CN(C)C(=O)c1ccc(CNC(=O)c2ccc(-c3cnc4ccc(-c5cnc(N)c(C(F)(F)F)c5)nn34)cc2)cc1 6.78
